Literature-derived pIC50 for Carbonic anhydrase 2 (Homo sapiens) follows.
pIC50 field: float, defined as -log10 of concentration (mol/L).

Consider the compound shown here: Nc1ccc(C(=O)O)c(O)c1 What is its recorded pIC50?
3.12

Consider the compound shown here: COc1ccc2[nH]c(S(N)(=O)=O)cc2c1 What is its recorded pIC50?
7.80

Consider the compound shown here: NS(=O)(=O)c1cc2c(s1)S(=O)(=O)CC(O)C2 (configuration not stated) What is its recorded pIC50?
8.00

Consider the compound shown here: NS(=O)(=O)c1ccc(N2C(=O)CC/C2=C\C(=O)c2ccc([N+](=O)[O-])cc2Cl)cc1 What is its recorded pIC50?
9.34

Consider the compound shown here: NS(=O)(=O)c1cccc([N+](=O)[O-])c1 What is its recorded pIC50?
6.39

Consider the compound shown here: COCCCNCc1cc2cc(S(N)(=O)=O)oc2s1 What is its recorded pIC50?
7.92

Consider the compound shown here: Cc1c(S(N)(=O)=O)oc2cc(O)ccc12 What is its recorded pIC50?
6.68

Consider the compound shown here: CCCCCCCCS(=O)(=O)C(F)S(N)(=O)=O (configuration not stated) What is its recorded pIC50?
8.52

Consider the compound shown here: O=C(O)c1cc(S(=O)(=O)O)ccc1O What is its recorded pIC50?
3.54

Consider the compound shown here: CC(C)CNCc1cccc(C(=O)c2csc(S(N)(=O)=O)c2)c1.Cl What is its recorded pIC50?
7.89

* * *

pIC50: −log10 of the molar value.
Literature-derived pIC50 for Carbonic anhydrase 2 (Homo sapiens, UniProt P00918) follows.

Consider the compound shown here: O=P(O)(O)C(Nc1cccc(F)c1)P(=O)(O)O What is its recorded pIC50?
< 5.00

Consider the compound shown here: NS(=O)(=O)c1ccc2[nH]c(-c3ccc(Cl)cc3)nc2c1 What is its recorded pIC50?
< 6.44

Consider the compound shown here: CC[S@@](=N)(=O)c1ccc(Nc2ncc(Br)c(N[C@H](C)[C@@H](C)O)n2)cc1 What is its recorded pIC50?
< 5.00

Consider the compound shown here: Cn1c(-c2ccccn2)nc2cc(S(N)(=O)=O)ccc21 What is its recorded pIC50?
< 6.44

Consider the compound shown here: NS(=O)(=O)c1ccc2[nH]c(-c3ccccc3)nc2c1 What is its recorded pIC50?
< 6.44

Consider the compound shown here: O=P(O)(O)C(Nc1ccc(F)cc1)P(=O)(O)O What is its recorded pIC50?
< 5.00
